Read-out: Cytochrome P450 (CYP2B6), CYP2B6 (gene 1555)
Protocol summary: LTEA_HepaRG_CYP2B6: Life Technologies and Expression Analysis (LTEA) Assay for Cytochrome P450 (CYP2B6) using HepaRG (AID 2283481)
Run conditions: mRNA level, 48 h; actives raise or lower the signal
The source made the active and inactive calls. How the source made its calls: active means hit-call score of the fitted dose curve at least 0.9, where 1 is the maximum; inactive means score below 0.9.
Outcomes: active, inactive

{"Compound": "O=[N+]([O-])C(CO)(CO)CO", "Answer label": "inactive"}
{"Compound": "COc1ccc2c(c1)c(CC(=O)O)c(C)n2C(=O)c1ccc(Cl)cc1", "Answer label": "inactive"}
{"Compound": "COC(=O)c1ccc(O)cc1", "Answer label": "inactive"}
{"Compound": "Cc1ccc(Cl)cc1", "Answer label": "inactive"}
{"Compound": "CC=Cc1ccc(O)c(OC)c1", "Answer label": "inactive"}
{"Compound": "CC(CO)OC(C)CO (stereo unspecified) (tested in a mixture with another compound)", "Answer label": "inactive"}
{"Compound": "CCCCN(CCCC)CCCC", "Answer label": "inactive"}
{"Compound": "Cc1ccc(N(C)C)cc1", "Answer label": "active"}
{"Compound": "CC(=O)C(C)=CC1C(C)=CCCC1(C)C (stereo unspecified)", "Answer label": "inactive"}
{"Compound": "CCCCc1ccc2c(n1)[C@@H](c1ccc(OC)cc1C[C@H](C)C(=O)O)[C@H](C(=O)O)[C@H]2c1ccc2c(c1)OCO2", "Answer label": "inactive"}
{"Compound": "c1cc(-c2ccncc2)ccn1", "Answer label": "inactive"}
